These measurements were taken from patent US10206907B2.

- Tested on: MMP13 in SW1353 cells
- Measurement protocol: OSM/IL-1β signaling assay (MMP13 levels in SW1353 cells)
- Type: cell-based
- Experimental conditions: Homo sapiens; SW1353 cells, OSM and IL-1β triggered, MMP13 levels 48 hours after triggering; read-out: MMP13 EC50
pEC50: −log10 of the molar value.
Measure: pEC50

query: For O=C(COc1ccc(-c2cccc3nc(NC(=O)C4CC4)nn23)cc1)Nc1cccc(F)c1 [Compound 116] , what is its reported pEC50?
result: < 6.00

query: For O=C(Nc1nc2cccc(-c3ccc(CC(=O)N4CCC(C(F)(F)F)CC4)cc3)n2n1)C1CC1 [Compound 319] , what is its reported pEC50?
result: < 6.00

query: For Cc1cc(COc2ccc(-c3cccc4nc(NC(=O)C5CC5)nn34)cc2)no1 [Compound 52] , what is its reported pEC50?
result: < 6.00

query: For CC(=O)N(Cc1ccccn1)c1ccc(-c2cccc3nc(NC(=O)C4CC4)nn23)cc1 [Compound 208] , what is its reported pEC50?
result: < 6.00

query: For O=C(Nc1nc2cccc(-c3ccc(NS(=O)(=O)CCOc4ccccc4)cc3)n2n1)C1CC1 [Compound 122] , what is its reported pEC50?
result: < 6.00

query: For O=C(Nc1nc2cccc(-c3ccc(C(=O)N4CCCCC4)cc3F)n2n1)C1CC1 [Compound 89] , what is its reported pEC50?
result: < 6.00

query: For O=C(Nc1nc2cccc(-c3ccc(CCc4ccccn4)cc3)n2n1)C1CC1 [Compound 211] , what is its reported pEC50?
result: 6.00 to 6.30

query: For CC(=O)Nc1nc2cccc(-c3ccc(OCc4ccccc4)cc3)n2n1 [Compound 163] , what is its reported pEC50?
result: < 6.00

query: For Cn1cc(-c2ccc(COc3ccc(-c4cccc5nc(NC(=O)C6CC6)nn45)cc3)cn2)cn1 [Compound 178] , what is its reported pEC50?
result: < 6.00

query: For CN(C(=O)c1ccc(-c2cccc3nc(NC(=O)C4CC4)nn23)cc1)C1CCS(=O)(=O)C1 (stereo not shown) [Compound 273] , what is its reported pEC50?
result: < 6.00

query: For NC(=O)c1ccc(COc2ccc(-c3cccc4nc(NC(=O)C5CC5)nn34)cc2)cn1 [Compound 192] , what is its reported pEC50?
result: 6.00 to 6.30

query: For CN(C(=O)COc1ccc(-c2cccc3nc(NC(=O)C4CC4)nn23)cc1)c1ccccc1 [Compound 118] , what is its reported pEC50?
result: < 6.00

query: For O=C(Nc1nc2cccc(-c3ccc(CNc4cccnn4)cc3)n2n1)C1CC1 [Compound 222] , what is its reported pEC50?
result: < 6.00

query: For O=C(Nc1nc2cccc(-c3ccc(CN4CCOCC4)cc3)n2n1)C1CC1 [Compound 18] , what is its reported pEC50?
result: < 6.00

query: For O=C(Nc1nc2cccc(-c3ccc(CN4CCOC(c5ccccc5)C4)cc3)n2n1)C1CC1 (stereo not shown) [Compound 231] , what is its reported pEC50?
result: 6.30 to 9.00

query: For O=C(Nc1nc2cccc(-c3ccc(C(=O)N4CCC(c5cc6ccccc6[nH]5)CC4)cc3)n2n1)C1CC1 [Compound 138] , what is its reported pEC50?
result: < 6.00

====

- Measured target: Recombinant human JAK1 catalytic domain (Homo sapiens (Human))
- Sequence (P23458 850-1154): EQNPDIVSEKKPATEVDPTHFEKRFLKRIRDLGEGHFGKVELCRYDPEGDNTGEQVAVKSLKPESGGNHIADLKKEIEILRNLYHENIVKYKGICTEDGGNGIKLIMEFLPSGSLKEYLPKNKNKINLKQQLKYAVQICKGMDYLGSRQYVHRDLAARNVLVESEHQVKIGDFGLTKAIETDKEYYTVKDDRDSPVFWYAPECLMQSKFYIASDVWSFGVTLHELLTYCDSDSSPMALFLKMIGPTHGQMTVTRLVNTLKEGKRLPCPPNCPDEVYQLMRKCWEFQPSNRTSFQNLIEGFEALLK
- Measurement protocol: JAK1 inhibition assay
- Type: biochemical
- Experimental conditions: semi-quantitative score
Task for the reader: assign each of the following compounds its reported IC50.

query: For O=C(Nc1nc2cccc(-c3ccc(C(=O)N4CCC(c5noc6cc(F)ccc56)CC4)cc3)n2n1)C1CC1 , what is its reported IC50?
result: 101 to 500 nM

query: For CC(=O)N(Cc1ccc(C#N)nc1)c1ccc(-c2cccc3nc(NC(=O)C4CC4)nn23)cc1 , what is its reported IC50?
result: < 100 nM

query: For CC1(C)CN(Cc2ccc(-c3cccc4nc(NC(=O)C5CC5)nn34)cc2)C1 , what is its reported IC50?
result: 101 to 500 nM

query: For O=C(Nc1nc2cccc(-c3ccc(OCC4CCCCC4)cc3)n2n1)C1CC1 , what is its reported IC50?
result: < 100 nM

====

- Measurement protocol: Caco2 permeability (bi-directional)
- Assay type: in vitro ADME, human
- Experimental conditions: human, pH 7.4; Caco-2, ratio of PappB>A/PappA>B
Task for the reader: assign each of the following compounds its reported efflux ratio at 1 h, 10 µM.
Format: numeric value only, no unit, no commentary.

query: For O=C(Nc1nc2cccc(-c3ccc(CNc4ncc(F)cc4F)cc3)n2n1)C1CC1 [Compound 257] , what is its reported efflux ratio at 1 h, 10 µM?
result: 1.1

query: For O=C(Nc1nc2cccc(-c3ccc(OC4CCCC4)cc3)n2n1)C1CC1 [Compound 40] , what is its reported efflux ratio at 1 h, 10 µM?
result: 0.67

query: For O=C(NCCc1ccc(C(F)(F)F)cc1)c1ccc(-c2cccc3nc(NC(=O)C4CC4)nn23)cc1 [Compound 97] , what is its reported efflux ratio at 1 h, 10 µM?
result: 2.61

query: For O=C(Nc1nc2cccc(-c3ccc(NS(=O)(=O)CCc4ccccc4)cc3)n2n1)C1CC1 [Compound 76] , what is its reported efflux ratio at 1 h, 10 µM?
result: 5.09

====

- Measurement protocol: Microsomal stability, human liver microsomes
- Format: in vitro ADME
- Experimental conditions: percentage of compound remaining after 60 minutes, 3 μM compound
- Procedure: 40 μL of deionised water was added to a well of a polypropylene Matrix 2D barcode labelled storage tube (Thermo Scientific) and pre-incubated at 37° C. […] The samples were analyzed on LCMS with a flow rate of 1 mL/min. […] The percentage remaining after 1 hour incubation was calculated from time 0 and was calculated as the percentage remaining. The data on microsomal stability are expressed as a percentage of the total amount of compound remaining after 60 minutes.
Measure: Microsomal Stability Human (%)

Some entries whose results are on file:
{"columns": ["Smiles data", "Microsomal Stability Human (%)"],
 "data": [
  ["CC1(C)CCCN(C(=O)c2ccc(-c3cccc4nc(NC(=O)C5CC5)nn34)cc2)C1", "* (* 0-25)"],
  ["O=C(Nc1nc2cccc(-c3ccc(OCc4ccccc4)cc3)n2n1)C1CC1", "*** (*** 51-75)"],
  ["CCCc1ccc(S(=O)(=O)Nc2ccc(-c3cccc4nc(NC(=O)C5CC5)nn34)cc2)cc1", "* (* 0-25)"],
  ["O=C(Nc1nc2cccc(-c3ccc(OCc4ccc(C(F)(F)F)nc4)cc3)n2n1)C1CC1", "**** (**** 76-100)"],
  ["O=C(Nc1nc2cccc(-c3ccc(OCc4ccc(Cl)nc4)cc3)n2n1)C1CC1", "*** (*** 51-75)"]
]}

Note: attention shifts to another entry.
query: For Cn1cc(-c2ccc(COc3ccc(-c4cccc5nc(NC(=O)C6CC6)nn45)cc3)cn2)cn1 , what is its reported Microsomal Stability Human (%)?
result: * (* 0-25)

====

- Test system: JAK-STAT signalling in HeLa cells
- Measurement protocol: JAK-STAT signalling assay (OSM-triggered pSTAT1(2)-luciferase reporter in HeLa cells)
- Assay type: cell-based
- Experimental conditions: Homo sapiens; HeLa cells, OSM-triggered pSTAT1(2)-luciferase reporter; read-out: STAT signalling EC50
- Protocol: HeLa cells were maintained in Dulbecco's Modified Eagle's Medium (DMEM) containing 10% heat inactivated fetal calf serum, 100 U/mL penicillin and 100 μg/mL streptomycin. HeLa cells were used at 70% confluence for transfection. […] 40 μL of cell lysate was used to read β-galactosidase activity by adding 180 μL βGal solution (30 μl ONPG 4 mg/mL+150 μL β-Galactosidase buffer (0.06 M Na2HPO4, 0.04 M NaH2PO4, 1 mM MgCl2)) for 20 min. […]
Measure: EC50

query: For O=C(Nc1nc2cccc(-c3ccc4c(ccn4Cc4ccccc4)c3)n2n1)C1CC1 , what is its reported EC50?
result: 501 to 1000 nM

query: For O=C(Nc1nc2cccc(-c3ccc(CN4CCC(C(F)(F)F)CC4)cc3)n2n1)C1CC1 , what is its reported EC50?
result: 101 to 500 nM

query: For O=C(Cc1ccccc1)Nc1ccc(-c2cccc3nc(NC(=O)C4CC4)nn23)cc1 , what is its reported EC50?
result: > 1000 nM

query: For O=C(Nc1nc2cccc(-c3ccc(NS(=O)(=O)c4cccnc4)cc3)n2n1)C1CC1 , what is its reported EC50?
result: > 1000 nM

====

- System: MMP13 in SW1353 cells
- Measurement protocol: OSM/IL-1β signaling assay (MMP13 levels in SW1353 cells);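 note: secreted MMP13 captured by antibody, activated with APMA and its activity read by fluorescence, inhibition scaled between vehicle-treated triggered wells (0%) and untriggered wells (100%)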
- Format: cell-based
- Experimental conditions: Homo sapiens; SW1353 cells, OSM and IL-1β triggered, MMP13 levels 48 hours after triggering; read-out: MMP13 EC50
pEC50: −log10 of the molar value.
Task for the reader: assign each of the following compounds its reported pEC50.

query: For CN(C)C1CCN(C(=O)c2ccc(-c3cccc4nc(NC(=O)C5CC5)nn34)cc2)C1 (stereo not shown) , what is its reported pEC50?
result: < 6.00

query: For O=C(Nc1nc2cccc(-c3ccc(C(=O)N4CCC(F)(F)CC4)cc3)n2n1)C1CC1 , what is its reported pEC50?
result: < 6.00

query: For O=C(Nc1nc2cccc(-c3cnn(Cc4ccccc4)c3)n2n1)C1CC1 , what is its reported pEC50?
result: < 6.00

query: For O=C(Nc1nc2cccc(-c3ccc(C(=O)N4CCCC(O)C4)cc3)n2n1)C1CC1 (stereo not shown) , what is its reported pEC50?
result: < 6.00
